Hello, the source for this data is paper PMC5844832, in case you need it.

Give pKd for every item shown.
MEASURED ON: T1, GST-HOIP-UBA (human, UniProt Q96EP0 480-636)
T1 sequence: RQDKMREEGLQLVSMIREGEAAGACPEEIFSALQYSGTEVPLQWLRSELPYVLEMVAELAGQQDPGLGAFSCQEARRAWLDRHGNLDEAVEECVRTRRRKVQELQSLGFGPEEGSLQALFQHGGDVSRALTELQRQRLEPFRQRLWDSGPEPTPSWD
PROTOCOL DESCRIPTION: SPR
βAla = NCCC(=O)O
One number for each entry, as −log10 of the molar value.

SRALTELQRQRLEGFRQRLWDS (N-terminal β-alanine; N-terminal acetyl; hydrocarbon staple between two cross-linking amino acids in the N-terminal (α8) helix) [N-P2G (6), N-stapled P2G HOIP peptide] ... 5.37

Next binder, please.
**Query** Consider the binder {Ac-βAla}-SRALTELQRQRLEGFRQRLWDS-NH2 (peptide, UniProt Q96EP0 606-627, looked up) [P2G WT (5), unstapled HOIP peptide with proline-to-glycine substitution] and give its measured pKd.
**Result** 4.09
